Tested on: HOP-92
Assay: NCI tumour cell line growth inhibition, 48 h
The source made the active and inactive calls. Cut-off read from the data, not from the text of the source: active = GI50 up to about 1.1 µM and inactive = higher.
Measured GI50 values are reported for all entries that follow.
Quantity kind: GI50

>>> assay_result("Oc1ncc(N(CCCl)CCCl)c(O)n1")
"23.8 µM (inactive)"
>>> assay_result("O=C(NCCCCCCO)c1cccc2cc3ccccc3nc12")
"25.8 µM (inactive)"
>>> assay_result("O=C(/C=C/CC(O)(c1ccccc1)c1ccccc1)Nc1ccccc1Cl")
"> 100 µM (inactive)"
>>> assay_result("COc1ccc2c(c1)CC[C@@H]1C2CC[C@]2(C)C(=O)N(CCN3CCCC3)C(=O)CC12 (stereo partly specified)")
"17.8 µM (inactive)"
>>> assay_result("CNC(=S)NC1CCCCC1NC(=S)NC (stereo unspecified)")
"> 100 µM (inactive)"
>>> assay_result("CN(C)CCNC(=O)c1cc(-c2nccn2C)nc2ccccc12")
"64.7 µM (inactive)"
